Biological target: FAD-linked sulfhydryl oxidase ALR (Homo sapiens)
Assay: ALR-catalysed DTT oxidation blockers – biochemical, H2O2 detection, HRP-luminol luminescence, single point, primary screen (AID 485317)
Conditions: purified ALR, stronger effect = higher value, concentration not given here
The campaign covered roughly 290,000 compounds. About 11,000 (3.8%) were called active. The sample holds actives, similar compounds and a random draw of the others, so the mix is not that of the screen.
Criterion: inhibition meeting or surpassing 30%. Met: TRUE. Not met: FALSE.

Use these answered entries as a reference point.
compound | labelClass
CCn1c(-c2ccoc2C)n[nH]c1=S | FALSE
CN(C(=O)COC(=O)c1ccc(Br)o1)c1c(N)n(Cc2ccccc2)c(=O)[nH]c1=O | FALSE
COc1cc(/C=C2\CCCc3c2nc2ccccc2c3C(=O)O)cc(Cl)c1O | TRUE
CC(=O)C1=C(O)C(=O)N(c2ccc(Br)cc2)C1c1ccc([N+](=O)[O-])cc1 (stereo unspecified) | TRUE
CN(C)c1ccc(/C=N/Nc2cc(N3CCOCC3)nc(N3CCOCC3)n2)cc1 | TRUE
COc1ccccc1OCCCCCCN1CCN(C)CC1 | FALSE
COc1ccc(/C=N/Nc2cc(N3CCOCC3)nc(C)n2)c(OC)c1 | TRUE
CN(CC(=O)Nc1cccc(F)c1)C(=O)C1CC(=O)N(CCc2ccccc2)C1 (stereo unspecified) | FALSE

input: Entry C(=N/Nc1cc(N2CCOCC2)nc(N2CCOCC2)n1)/c1ccccc1 : is its inhibition no less than 30%?
output: TRUE

input: Form field: inhibition at least 30%? Entry: O=C1C=C(c2cc(C(F)(F)F)cc(C(F)(F)F)c2)C[C@@H](c2ccc3c(c2)OCO3)C1
output: FALSE

input: Say whether CCCc1cc(-c2n[nH]c(=S)n2CC)c2ccccc2n1 shows inhibition of 30% or more.
output: FALSE

====

Target: FAD-linked sulfhydryl oxidase ALR (Homo sapiens) (UniProt P55789)
Sequence (P55789 whole entry, looked up): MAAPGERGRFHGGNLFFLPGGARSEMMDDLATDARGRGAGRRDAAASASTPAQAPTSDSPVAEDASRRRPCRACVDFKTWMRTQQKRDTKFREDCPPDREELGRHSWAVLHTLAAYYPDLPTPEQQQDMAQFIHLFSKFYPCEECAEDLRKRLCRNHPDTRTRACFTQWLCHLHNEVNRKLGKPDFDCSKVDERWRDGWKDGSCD
Assay: ALR-catalysed DTT oxidation blockers – biochemical, H2O2 detection, HRP-luminol luminescence, single point, primary screen (AID 485317)
Details: purified ALR, stronger effect = higher value, concentration not given here
In all, about 290,000 compounds went through this assay and about 11,000 (3.8%) were called active. The sample as a whole holds a higher share of actives than the screen did.
readoutName: inhibition (%)
Please respond with the number in % and leave the unit unwritten.

Known inhibition results, listed for orientation:
molecule | targetOrSystem | inhibition, %
O=C(CN1C(=O)c2ccc([N+](=O)[O-])cc2C1=O)Nc1nnc(C2CC2)s1 | FAD-linked sulfhydryl oxidase ALR (Homo sapiens) (UniProt P55789) | -1.72
O=C(c1n[nH]c2c1CCC2)N1CCCC(Nc2cccc(F)c2)C1 (configuration not stated) | FAD-linked sulfhydryl oxidase ALR (Homo sapiens) (UniProt P55789) | 99.1
CN(CC(=O)Nc1ccc(F)c(F)c1F)C(=O)Cn1cnc2c1c(=O)n(C)c(=O)n2C | FAD-linked sulfhydryl oxidase ALR (Homo sapiens) (UniProt P55789) | -6.05
O=C(Nc1cccc(F)c1)NC1CCCCCCC1 | FAD-linked sulfhydryl oxidase ALR (Homo sapiens) (UniProt P55789) | 43.5
c1csc(-c2cn3c(n2)SCC3)c1 | FAD-linked sulfhydryl oxidase ALR (Homo sapiens) (UniProt P55789) | 92.3

Note: attention shifts to another entry.
input: Which inhibition value is on record for COc1cc(CC(=O)Nc2nc(-c3ccc(F)c(F)c3)cs2)cc(OC)c1OC ?
output: 0.225

====

Biological target: FAD-linked sulfhydryl oxidase ALR (Homo sapiens)
Assay: ALR-catalysed DTT oxidation blockers – biochemical, H2O2 detection, HRP-luminol luminescence, single point, primary screen (AID 485317)
Details: purified ALR, concentration not given here
Screen size: about 290,000 compounds; about 11,000 (3.8%) were called active.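 The calls were made as follows: active = mean replicate inhibition above about 79%, with every replicate also reaching it (limit read from the data); inconclusive = only one of the two criteria met; inactive = mean below limit and not every replicate reaching it.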 The list comes from a sample in which actives are over-represented; it also holds close analogues and randomly drawn compounds.
Bench note: report the call from active, inactive

compound | labelClass
OCC(O)CN(c1ccccc1)c1ccccc1 (stereo unspecified) | active
COc1cccc(C(O)Cc2nc3ccccc3n2C)c1OC (stereo unspecified) | inactive
COc1cc([N+](=O)[O-])ccc1NC(=O)COC(=O)CCOc1ccc(C)cc1 | inactive

input: Give the logged outcome of this assay for the following compound: COC(=O)CNS(=O)(=O)c1ccc(Cc2ccc(S(=O)(=O)NCC(=O)OC)cc2)cc1
output: active

input: Identify the outcome logged in this assay for the compound shown: C=CCC(NCc1ccco1)c1ccc(OC)cc1 (stereo unspecified)
output: inactive

input: Hi team, can someone confirm the assay call for COc1ccc(Cl)cc1NC(=O)CN(C)C(=O)c1ccc2n[nH]nc2c1 ?
output: inactive

====

Molecular target: FAD-linked sulfhydryl oxidase ALR (Homo sapiens)
Assay: ALR-catalysed DTT oxidation blockers – biochemical, H2O2 detection, HRP-luminol luminescence, single point, primary screen (AID 485317)
Conditions: purified ALR, concentration not given here
In all, about 290,000 compounds went through this assay and about 11,000 (3.8%) were called active.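 The calls were made as follows: active = mean replicate inhibition above about 79%, with every replicate also reaching it (limit read from the data); inconclusive = only one of the two criteria met; inactive = mean below limit and not every replicate reaching it.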 Only a selection was taken, and actives are over-represented in it overall.
Classes to choose from: 1 (yes) = active, 0 (no) = inactive

# count of solved cases: 4
chemSmiles | targetOrSystem | labelClass
Cc1sc2nc(CSCC(=O)Nc3c(Cl)cccc3Cl)[nH]c(=O)c2c1C | FAD-linked sulfhydryl oxidase ALR (Homo sapiens) | 0 (no)
COc1cccc(-c2ccc3c(c2)S(=O)(=O)c2cccc(C(=O)O)c2C3=O)c1OC | FAD-linked sulfhydryl oxidase ALR (Homo sapiens) | 0 (no)
CS(=O)(=O)c1ccc(Cl)c(NC(=O)COC(=O)c2ncc(Cl)c(Cl)c2Cl)c1 | FAD-linked sulfhydryl oxidase ALR (Homo sapiens) | 0 (no)
CCOC(=O)c1sc2nc(CSCC(=O)OCc3ccc(C(=O)OC)o3)[nH]c(=O)c2c1C | FAD-linked sulfhydryl oxidase ALR (Homo sapiens) | 1 (yes)

Here is another molecule to look at.
input: Field: outcome | Entry: C[C@H]1CCC(=O)N([C@H](CSc2ccccc2)Cc2ccccc2)CC1
output: 0 (no)

====

Molecular target: FAD-linked sulfhydryl oxidase ALR (Homo sapiens) (UniProt P55789)
Assay: ALR-catalysed DTT oxidation blockers – biochemical, H2O2 detection, HRP-luminol luminescence, single point, primary screen (AID 485317)
Conditions: purified ALR, stronger effect = higher value, concentration not given here
Among all 290,000 compounds or so, about 11,000 (3.8%) were called active. Shown is part of a subset that was picked to be rich in actives.
readoutName: inhibition (%)
// note: answer is a bare numeric in %

These solved cases illustrate the format of a correct answer.
compound | displayUnit | inhibition
O=C(NCCc1ccc(F)cc1)c1ccc2nccnc2c1 | % | -6.27
Cc1cc(C(=O)CCC(=O)NNC(=O)c2ccccc2O)c(C)s1 | % | 8.1
COc1ccc(CNC2CCCCC2)cc1 | % | -5.38
CC(C)(C)c1ccc(Oc2ccc(N)cc2)cc1 | % | 98.6
Cc1cc(C)c(C#N)c(SCC(=O)Nc2ccccc2)n1 | % | -3.28
Cc1nn(-c2ccccn2)c2c1C(c1ccncc1)C1=C(CC(C)(C)CC1=O)N2 (stereo unspecified) | % | 16
COc1ccc(-c2nnc(SCc3cccnc3)o2)cc1 | % | -15
Cc1ccc(-c2nnc(Nc3ccc(C(=O)N(C)C)cc3)c3ccccc23)cc1S(N)(=O)=O | % | -2.47
CC(=O)C1=C(C)NC2=C(C(=O)CC(C)(C)C2)C1C (stereo unspecified) | % | -3.96
O=C(CCNC(=O)c1ccccc1)NN=Cc1ccc(Br)o1 | % | -2.22

input: Reported inhibition, compound Cc1ccc(NC(=O)CSc2sc3c(O)cc(=O)[nH]c3c2C#N)cc1C : ____
output: 98.4

input: Given the entry O=C(COC(=O)c1ccc([N+](=O)[O-])o1)NC12CC3CC(CC(C3)C1)C2 , report its measured inhibition.
output: -29.8

====

Biological target: FAD-linked sulfhydryl oxidase ALR (Homo sapiens)
Assay: ALR-catalysed DTT oxidation blockers – biochemical, H2O2 detection, HRP-luminol luminescence, single point, primary screen (AID 485317)
Conditions: purified ALR, concentration not given here
In all, about 290,000 compounds went through this assay and about 11,000 (3.8%) were called active.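 How the source made its calls: active means mean replicate inhibition above about 79%, with every replicate also reaching it (limit read from the data); inconclusive means only one of the two criteria met; inactive means mean below limit and not every replicate reaching it.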 For the sample, actives were picked, then their nearest neighbours and some compounds at random.
One label from this list, please: active, inactive

Look over these answered cases.
compound | targetOrSystem | labelClass
COC(=O)C(CC(=O)Nc1cc(C)ccc1C)Nc1ccccc1OC (stereo not given) | FAD-linked sulfhydryl oxidase ALR (Homo sapiens) | active
O=C(CSCc1ccccc1)Nc1ccccc1 | FAD-linked sulfhydryl oxidase ALR (Homo sapiens) | inactive
CN(CC(=O)Nc1ccc(Cl)cc1)C(=O)c1ccc(COc2ccccc2)cc1 | FAD-linked sulfhydryl oxidase ALR (Homo sapiens) | inactive
COCCCn1c(CCC(=O)O)ccc1-c1ccc(F)cc1 | FAD-linked sulfhydryl oxidase ALR (Homo sapiens) | inactive
COc1ccc(-c2ccc(CCC(=O)O)n2NC(=O)c2ccc(C(C)(C)C)cc2)cc1 | FAD-linked sulfhydryl oxidase ALR (Homo sapiens) | active

input: Query: recorded result category for CCOc1cccc(/C=N/NC(=S)NCCN2CCOCC2)c1O in this test
output: inactive

input: For CC(=O)Nc1ccc(NC(=O)CSCc2cnn(-c3ccccc3)c2-n2cccc2)cc1 , which call appears in the assay record?
output: active

input: Dear colleague, could you share the recorded outcome for COc1ccc(C(=O)NC(Cc2ccc(OC(=O)c3ccc(OC)cc3)cc2)C(=O)O)cc1 (stereo not given) when you have a moment?
output: inactive

input: Status in this test for C[C@H](CO)N1C[C@H](C)[C@@H](CN(C)C(=O)NC2CCCCC2)Oc2ccc(NC(=O)c3ccncc3)cc2C1=O ?
output: inactive

input: Which result was noted for this compound in the test: COc1ccccc1NC(=O)CC(NCCN(C)C)C(=O)O (stereo not given)
output: inactive
